target_or_test_system: CYP2C8 (Homo sapiens, UniProt P10632)
Construct: incubated with human liver microsomes; tissue Eurofins ITEMG232; host or cells: human liver microsomes
Sequence (P10632 whole entry): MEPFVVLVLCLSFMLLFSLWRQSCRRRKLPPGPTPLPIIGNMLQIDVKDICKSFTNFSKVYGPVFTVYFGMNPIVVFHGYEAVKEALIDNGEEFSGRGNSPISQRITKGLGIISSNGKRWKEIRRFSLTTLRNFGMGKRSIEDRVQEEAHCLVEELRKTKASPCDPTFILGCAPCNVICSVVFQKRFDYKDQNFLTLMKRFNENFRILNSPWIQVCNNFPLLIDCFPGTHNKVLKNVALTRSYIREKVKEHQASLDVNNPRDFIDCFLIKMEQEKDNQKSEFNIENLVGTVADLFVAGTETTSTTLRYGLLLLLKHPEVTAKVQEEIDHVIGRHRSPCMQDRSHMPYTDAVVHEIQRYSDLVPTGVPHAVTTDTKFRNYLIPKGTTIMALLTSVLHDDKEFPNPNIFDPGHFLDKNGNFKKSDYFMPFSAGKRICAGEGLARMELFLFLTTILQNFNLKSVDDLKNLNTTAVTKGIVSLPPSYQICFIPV
test: CYP inhibition in human liver microsomes, CYP2C8
Format: in vitro ADME
details: probe paclitaxel and amodiaquine, substrate paclitaxel and amodiaquine, read-out: CYP2C8 Inh %
Returns TRUE if the recorded inhibition at 10 µM is greater than or equal to 60%, and FALSE otherwise.

Solved cases (5 shown):
INSERT INTO measurements (compound, class_name) VALUES
  ('CCCNC(=O)NS(=O)(=O)c1sc(CC(C)C)cc1-c1ccc(Cn2ccnc2CC)c(F)c1.O=C(O)C(F)(F)F [Example 33, trifluoroacetic acid]', 'TRUE'),
  ('Cc1nccn1Cc1ccc(-c2cc(CC(C)C)sc2S(=O)(=O)NC(=O)NCCc2c[nH]cn2)cc1F [Example 16]', 'TRUE'),
  ('Cc1nccn1Cc1ccc(-c2cc(CC(C)C)sc2S(=O)(=O)NC(=O)NCc2cc(Cl)ccn2)cc1F.O=C(O)C(F)(F)F [Example 38, trifluoroacetic acid]', 'TRUE'),
  ('Cc1nccn1Cc1ccc(-c2cc(CC(C)C)sc2S(=O)(=O)NC(=O)NCCCC(F)(F)F)cc1 [Example 5]', 'FALSE'),
  ('Cc1nccn1Cc1ccc(-c2cc(CC(C)C)sc2S(=O)(=O)NC(=O)NC(C)c2ccccn2)cc1F (stereo not shown) [Example 25]', 'FALSE');

Exercise: Could you tell me if the measured inhibition at 10 µM of Cc1nccn1Cc1ccc(-c2cc(CC(C)C)sc2S(=O)(=O)NC(=O)NCc2ccccc2)cc1F [Example 12] reaches 60% or more?
Solution: FALSE

Exercise: // repeat for Cc1nccn1Cc1ccc(-c2cc(CC(C)C)sc2S(=O)(=O)NC(=O)NCc2ccc(F)c(F)c2)cc1F.O=C(O)C(F)(F)F [Example 34, trifluoroacetic acid] and report
Solution: TRUE

Exercise: Proceed to Cc1cn(Cc2ccc(-c3cc(CC(C)C)sc3S(=O)(=O)NC(=O)NCc3ccccn3)cc2)c(C)n1 [Example 11]
Solution: FALSE

Exercise: Would you kindly repeat that for CCc1nccn1Cc1ccc(-c2cc(CC(C)C)sc2S(=O)(=O)NC(=O)NCCOC)cc1 [Example 7] ?
Solution: FALSE

Exercise: What would you report for Cc1nccn1Cc1ccc(-c2cc(CC(C)C)sc2S(=O)(=O)NC(=O)NCc2ccccc2)cc1 [Example 1] ?
Solution: FALSE

Exercise: Here is the next compound: Cc1nccn1Cc1ccc(-c2cc(CC(C)C)sc2S(=O)(=O)NC(=O)NCCCC(F)(F)F)cc1F [Example 18]
Solution: TRUE

Exercise: Follow-up item: Cc1nccn1Cc1ccc(-c2cc(CC(C)C)sc2S(=O)(=O)NC(=O)NCc2ccccn2)cc1 [Example 2]
Solution: FALSE

Exercise: Likewise for Cc1cn(Cc2ccc(-c3cc(CC(C)C)sc3S(=O)(=O)NC(=O)NCc3ccccc3)cc2)c(C)n1 [Example 10] ?
Solution: FALSE

Exercise: # repeat for Cc1nccn1Cc1ccc(-c2cc(CC(C)C)sc2S(=O)(=O)NC(=O)NCCC(F)(F)F)cc1 [Example 3]
Solution: FALSE

Exercise: Likewise for Cc1nccn1Cc1ccc(-c2cc(CC(C)C)sc2S(=O)(=O)NC(=O)NCc2nccn2C)cc1F [Example 15] ?
Solution: FALSE

Exercise: Follow-up item: Cc1nccn1Cc1ccc(-c2cc(CC(C)C)sc2S(=O)(=O)NC(=O)NCC(C)C)cc1F.O=C(O)C(F)(F)F [Example 39, trifluoroacetic acid]
Solution: FALSE

Exercise: Then what about the compound CCc1nccn1Cc1ccc(-c2cc(CC(C)C)sc2S(=O)(=O)NC(=O)NCc2ccccc2)cc1 [Example 6] ?
Solution: TRUE

Exercise: Then this compound: CCc1nccn1Cc1ccc(-c2cc(CC(C)C)sc2S(=O)(=O)NC(=O)NCc2ccc(F)cc2)cc1F.O=C(O)C(F)(F)F [Example 32, trifluoroacetic acid]
Solution: TRUE

Exercise: Same question, CCc1nccn1Cc1ccc(-c2cc(CC(C)C)sc2S(=O)(=O)NC(=O)NCCC(F)(F)F)cc1F.O=C(O)C(F)(F)F [Example 30, trifluoroacetic acid] this time
Solution: TRUE

Exercise: Same question for CCCCNC(=O)NS(=O)(=O)c1sc(CC(C)C)cc1-c1ccc(Cn2ccnc2C)cc1 [Example 4] please.
Solution: FALSE

Exercise: Next up: Cc1nccn1Cc1ccc(-c2cc(CC(C)C)sc2S(=O)(=O)NC(=O)NCC2CCC(F)(F)CC2)cc1F.O=C(O)C(F)(F)F [Example 40, trifluoroacetic acid]
Solution: TRUE

Exercise: Please answer likewise for Cc1nccn1Cc1ccc(-c2cc(CC(C)C)sc2S(=O)(=O)NC(=O)NCc2ccccn2)cc1F [Example 13]
Solution: TRUE

Exercise: Moving on to Cc1nccn1Cc1ccc(-c2cc(CC(C)C)sc2S(=O)(=O)NC(=O)NCCC(F)(F)F)cc1F [Example 14]
Solution: TRUE

Exercise: Next compound up: Cc1nccn1Cc1ccc(-c2cc(CC(C)C)sc2S(=O)(=O)NC(=O)NCc2cccs2)cc1F.O=C(O)C(F)(F)F [Example 35, trifluoroacetic acid]
Solution: FALSE

Exercise: Would you mind doing Cc1nccn1Cc1ccc(-c2cc(CC(C)C)sc2S(=O)(=O)NC(=O)N(C)Cc2ccccn2)cc1F [Example 17] as well?
Solution: TRUE

Exercise: CC(C)Cc1cc(-c2ccc(Cn3ccnc3C(C)C)c(F)c2)c(S(=O)(=O)NC(=O)NCCC(F)(F)F)s1.O=C(O)C(F)(F)F [Example 41, trifluoroacetic acid] , same question.
Solution: TRUE

Exercise: Let us now turn to CCc1nccn1Cc1ccc(-c2cc(CC(C)C)sc2S(=O)(=O)NC(=O)NCc2ccccn2)cc1 [Example 9]
Solution: FALSE
